test system: Alternaria alternata; experiment: Antifungal activity against Alternaria alternata at 500 ppm after 96 hrs; format: functional
assay-readout: inhibition at 500 ppm (%)
Answers are plain numbers, in %.

[
  {
    "molecule": "O=c1c(O)c(-c2cn(-c3ccccc3)nc2-c2ccc(Br)cc2)oc2ccccc12",
    "assay-target": "Alternaria alternata",
    "inhibition at 500 ppm / %": 29
  },
  {
    "molecule": "COc1ccc(-c2nn(-c3ccccc3)cc2-c2oc3ccccc3c(=O)c2O)cc1",
    "assay-target": "Alternaria alternata",
    "inhibition at 500 ppm / %": 75.4
  },
  {
    "molecule": "O=c1c(O)c(-c2cn(-c3ccccc3)nc2-c2ccc([N+](=O)[O-])cc2)oc2ccccc12",
    "assay-target": "Alternaria alternata",
    "inhibition at 500 ppm / %": 16.1
  },
  {
    "molecule": "O=c1c(O)c(-c2cn(-c3ccccc3)nc2-c2ccc(Cl)cc2)oc2ccccc12",
    "assay-target": "Alternaria alternata",
    "inhibition at 500 ppm / %": 38.2
  },
  {
    "molecule": "C[C@@H]1C[C@@H]([C@H](O)CC2CC(=O)NC(=O)C2)C(=O)[C@@H](C)C1 [CYCLOHEXIMIDE]",
    "assay-target": "Alternaria alternata",
    "inhibition at 500 ppm / %": 45.5
  }
]

Record inhibition at 500 ppm per entry; entries follow.
1. O=c1c(O)c(-c2cn(-c3ccccc3)nc2-c2ccc(F)cc2)oc2ccccc12
2. Cc1ccc(-c2nn(-c3ccccc3)cc2-c2oc3ccccc3c(=O)c2O)cc1

Completion:
43.3
61.8

Prompt: Please give the measured inhibition at 500 ppm for this molecule: O=c1c(O)c(-c2cn(-c3ccccc3)nc2-c2ccccc2)oc2ccccc12
Completion: 41.5

Ref: ChEMBL document CHEMBL1149782
